Settings: 323.15 K; 1000 kPa; Liquid; Vibrating tube method
readoutName: mass density (kg/m3)

compound="CCCCCCC(=O)OC [methyl heptanoate]" readoutname="mass density" measurement=853.12
compound="CCCCCCCCC(=O)OC [methyl nonanoate]" readoutname="mass density" measurement=849.17
compound="CCCCC(=O)OC [methyl pentanoate]" readoutname="mass density" measurement=859.81
compound="CCCCCC(=O)OC [methyl hexanoate]" readoutname="mass density" measurement=856.16
compound="CCCC(=O)OC [methyl butanoate]" readoutname="mass density" measurement=865.42
compound="CCCCCCCC(=O)OC [methyl octanoate]" readoutname="mass density" measurement=850.91

###

Settings: 313.15 K; 100 kPa; Liquid; Vibrating tube method
readoutName: mass density (kg/m3)

molecule="CCCCCCC(=O)OC [methyl heptanoate]" measurement=861.82
molecule="CCCCC(=O)OC [methyl pentanoate]" measurement=869.49
molecule="CCCCCC(=O)OC [methyl hexanoate]" measurement=865.26
molecule="CCCCCCCCC(=O)OC [methyl nonanoate]" measurement=857.46
molecule="CCCC(=O)OC [methyl butanoate]" measurement=875.83
molecule="CCCCCCCC(=O)OC [methyl octanoate]" measurement=859.3

###

Conditions: 313.15 K; 25000 kPa; Liquid; Vibrating tube method
readoutName: mass density (kg/m3)

molecule="CCCCCC(=O)OC [methyl hexanoate]" measurement=885.29
molecule="CCCCCCC(=O)OC [methyl heptanoate]" measurement=880.89
molecule="CCCC(=O)OC [methyl butanoate]" measurement=898.53
molecule="CCCCC(=O)OC [methyl pentanoate]" measurement=890.61
molecule="CCCCCCCC(=O)OC [methyl octanoate]" measurement=877.59
molecule="CCCCCCCCC(=O)OC [methyl nonanoate]" measurement=875.06

###

Conditions: 313.15 K; 30000 kPa; Liquid; Vibrating tube method
readoutName: mass density (kg/m3)

compound="CCCCC(=O)OC [methyl pentanoate]" unitstring=kg/m3 measurement=894.38
compound="CCCCCC(=O)OC [methyl hexanoate]" unitstring=kg/m3 measurement=888.86
compound="CCCC(=O)OC [methyl butanoate]" unitstring=kg/m3 measurement=902.47
compound="CCCCCCCC(=O)OC [methyl octanoate]" unitstring=kg/m3 measurement=880.87
compound="CCCCCCCCC(=O)OC [methyl nonanoate]" unitstring=kg/m3 measurement=878.23
compound="CCCCCCC(=O)OC [methyl heptanoate]" unitstring=kg/m3 measurement=884.32

###

Conditions: 303.15 K; 25000 kPa; Liquid; Vibrating tube method
readoutName: mass density (kg/m3)

compound="CCCCCC(=O)OC [methyl hexanoate]" readoutname="mass density" unitstring=kg/m3 measurement=893.78
compound="CCCCCCCCC(=O)OC [methyl nonanoate]" readoutname="mass density" unitstring=kg/m3 measurement=882.74
compound="CCCCCCCC(=O)OC [methyl octanoate]" readoutname="mass density" unitstring=kg/m3 measurement=885.35
compound="CCCC(=O)OC [methyl butanoate]" readoutname="mass density" unitstring=kg/m3 measurement=908.4
compound="CCCCCCC(=O)OC [methyl heptanoate]" readoutname="mass density" unitstring=kg/m3 measurement=889.08
compound="CCCCC(=O)OC [methyl pentanoate]" readoutname="mass density" unitstring=kg/m3 measurement=899.89

###

Conditions: 353.15 K; 50000 kPa; Liquid; Vibrating tube method
readoutName: mass density (kg/m3)

compound="CCCCCC(=O)OC [methyl hexanoate]" measurement=871.08
compound="CCCCC(=O)OC [methyl pentanoate]" measurement=875.94
compound="CCCCCCCC(=O)OC [methyl octanoate]" measurement=864.82
compound="CCCC(=O)OC [methyl butanoate]" measurement=882.24
compound="CCCCCCC(=O)OC [methyl heptanoate]" measurement=867.57
compound="CCCCCCCCC(=O)OC [methyl nonanoate]" measurement=862.53

###

Conditions: 353.15 K; 15000 kPa; Liquid; Vibrating tube method
readoutName: mass density (kg/m3)

molecule="CCCCCCCCC(=O)OC [methyl nonanoate]" readoutname="mass density" measurement=836.71
molecule="CCCCCCCC(=O)OC [methyl octanoate]" readoutname="mass density" measurement=838.05
molecule="CCCCCCC(=O)OC [methyl heptanoate]" readoutname="mass density" measurement=839.63
molecule="CCCCCC(=O)OC [methyl hexanoate]" readoutname="mass density" measurement=841.75
molecule="CCCCC(=O)OC [methyl pentanoate]" readoutname="mass density" measurement=844.84
molecule="CCCC(=O)OC [methyl butanoate]" readoutname="mass density" measurement=848.71

###

Settings: 293.15 K; 5000 kPa; Liquid; Vibrating tube method
readoutName: mass density (kg/m3)

molecule="CCCCC(=O)OC [methyl pentanoate]" measurement=893.59
molecule="CCCCCCCC(=O)OC [methyl octanoate]" measurement=879.78
molecule="CCCCCC(=O)OC [methyl hexanoate]" measurement=887.67
molecule="CCCC(=O)OC [methyl butanoate]" measurement=902.15
molecule="CCCCCCC(=O)OC [methyl heptanoate]" measurement=883.19
molecule="CCCCCCCCC(=O)OC [methyl nonanoate]" measurement=877.24

###

Settings: 353.15 K; 20000 kPa; Liquid; Vibrating tube method
readoutName: mass density (kg/m3)

molecule="CCCCCC(=O)OC [methyl hexanoate]" unitstring=kg/m3 measurement=846.44
molecule="CCCCC(=O)OC [methyl pentanoate]" unitstring=kg/m3 measurement=849.86
molecule="CCCCCCC(=O)OC [methyl heptanoate]" unitstring=kg/m3 measurement=844.11
molecule="CCCCCCCC(=O)OC [methyl octanoate]" unitstring=kg/m3 measurement=842.32
molecule="CCCCCCCCC(=O)OC [methyl nonanoate]" unitstring=kg/m3 measurement=840.79
molecule="CCCC(=O)OC [methyl butanoate]" unitstring=kg/m3 measurement=854.19

###

Conditions: 353.15 K; 10000 kPa; Liquid; Vibrating tube method
readoutName: mass density (kg/m3)

compound="CCCCC(=O)OC [methyl pentanoate]" measurement=839.27
compound="CCCCCCCC(=O)OC [methyl octanoate]" measurement=833.34
compound="CCCCCCC(=O)OC [methyl heptanoate]" measurement=834.76
compound="CCCCCCCCC(=O)OC [methyl nonanoate]" measurement=832.17
compound="CCCC(=O)OC [methyl butanoate]" measurement=842.65
compound="CCCCCC(=O)OC [methyl hexanoate]" measurement=836.55

###

Conditions: 293.15 K; 35000 kPa; Liquid; Vibrating tube method
readoutName: mass density (kg/m3)

compound="CCCCCCC(=O)OC [methyl heptanoate]" readoutname="mass density" unitstring=kg/m3 measurement=903.34
compound="CCCC(=O)OC [methyl butanoate]" readoutname="mass density" unitstring=kg/m3 measurement=925.38
compound="CCCCCCCC(=O)OC [methyl octanoate]" readoutname="mass density" unitstring=kg/m3 measurement=899.25
compound="CCCCC(=O)OC [methyl pentanoate]" readoutname="mass density" unitstring=kg/m3 measurement=915.63
compound="CCCCCCCCC(=O)OC [methyl nonanoate]" readoutname="mass density" unitstring=kg/m3 measurement=896.14
compound="CCCCCC(=O)OC [methyl hexanoate]" readoutname="mass density" unitstring=kg/m3 measurement=908.69

###

Details: 323.15 K; 40000 kPa; Liquid; Vibrating tube method
readoutName: mass density (kg/m3)

molecule="CCCC(=O)OC [methyl butanoate]" measurement=901.15
molecule="CCCCC(=O)OC [methyl pentanoate]" measurement=893.13
molecule="CCCCCC(=O)OC [methyl hexanoate]" measurement=887.68
molecule="CCCCCCCCC(=O)OC [methyl nonanoate]" measurement=877.04
molecule="CCCCCCCC(=O)OC [methyl octanoate]" measurement=879.75
molecule="CCCCCCC(=O)OC [methyl heptanoate]" measurement=883.15

###

Settings: 343.15 K; 20000 kPa; Liquid; Vibrating tube method
readoutName: mass density (kg/m3)

compound="CCCCCCC(=O)OC [methyl heptanoate]" unitstring=kg/m3 measurement=852.59
compound="CCCCCCCC(=O)OC [methyl octanoate]" unitstring=kg/m3 measurement=850.39
compound="CCCCCCCCC(=O)OC [methyl nonanoate]" unitstring=kg/m3 measurement=848.65
compound="CCCC(=O)OC [methyl butanoate]" unitstring=kg/m3 measurement=864.31
compound="CCCCCC(=O)OC [methyl hexanoate]" unitstring=kg/m3 measurement=855.28
compound="CCCCC(=O)OC [methyl pentanoate]" unitstring=kg/m3 measurement=859.25

###

Conditions: 323.15 K; 3000 kPa; Liquid; Vibrating tube method
readoutName: mass density (kg/m3)

molecule="CCCCC(=O)OC [methyl pentanoate]" measurement=861.81
molecule="CCCC(=O)OC [methyl butanoate]" measurement=867.62
molecule="CCCCCC(=O)OC [methyl hexanoate]" measurement=858.01
molecule="CCCCCCCCC(=O)OC [methyl nonanoate]" measurement=850.82
molecule="CCCCCCC(=O)OC [methyl heptanoate]" measurement=854.89
molecule="CCCCCCCC(=O)OC [methyl octanoate]" measurement=852.59
